# Tested on: CAL-85-1 (Breast Carcinoma);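 further: after 72 h of two-drug dosing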
# assay-text: Bliss excess, mean over the matrix (fraction); higher = more synergy
Reported Bliss excess values for a set of molecules

| molecule | Bliss excess |
| --- | --- |
| COc1cc2ncnc(Nc3ccc(F)c(Cl)c3)c2cc1OCCCN1CCOCC1 [Gefitinib] + CC(C)n1c(=O)n(C)c2cnc3cc(F)c(-c4ccc(OCCCN5CCCCC5)nc4)cc3c21 [AZD1390] (first compound max 10 µM, 7x7, partner max 0.3 µM) | -0.0236 |
| CC1(C)CCC(CN2CCN(c3ccc(C(=O)NS(=O)(=O)c4ccc(NCC5CCOCC5)c([N+](=O)[O-])c4)c(Oc4cnc5[nH]ccc5c4)c3)CC2)=C(c2ccc(Cl)cc2)C1 [Venetoclax] + C1CN(CCC1(C(=O)N[C@@H](CCO)C2=CC=C(C=C2)Cl)N)C3=NC=NC4=C3C=CN4 [Capivasertib] (first compound max 1 µM, 7x7, partner max 3 µM) | -0.031 |
| O=C(c1cc(Cc2n[nH]c(=O)c3ccccc23)ccc1F)N1CCN(C(=O)C2CC2)CC1 [Olaparib] + CC1(C)CCC(CN2CCN(c3ccc(C(=O)NS(=O)(=O)c4ccc(NCC5CCOCC5)c([N+](=O)[O-])c4)c(Oc4cnc5[nH]ccc5c4)c3)CC2)=C(c2ccc(Cl)cc2)C1 [Venetoclax] (first compound max 10 µM, 7x7, partner max 1 µM) | -0.026 |
| Cc1cc2ncnn2cc1Nc1ncc2c(n1)n(C1CCOCC1)c(=O)n2C [AZD7648] + CCN(CCO)CCCOc1ccc2c(Nc3cc(CC(=O)Nc4cccc(F)c4)[nH]n3)ncnc2c1 [AZD2811] (first compound max 10 µM, 7x7, partner max 1 µM) | -0.0195 |
